System: L1210 leukemia ip in BDF1 mice, survival T/C
Assay: NCI In Vivo Anticancer Drug Screen. Data for tumor model L1210 Leukemia (intraperitoneal) in B6D2F1 (BDF1) mice
Settings: endpoint: mean survival time; dose: 200.0 mg/kg/injection; schedule: Q04DX003 (ip); vehicle: saline; higher = longer survival
Method: The antitumor activity of compounds was measured in mice bearing transplantable tumors. Survival or tumor size were measured and the results are expressed as the measurement made in the treated group (T) divided by the measurement made in the vehicle treated control group (C). The tumor model used in this assay is L1210 Leukemia (intraperitoneal) in B6D2F1 (BDF1) mice
Inconclusive results and toxic doses are left out.

Molecule: CS(=O)(=O)OCCN(CCOS(C)(=O)=O)c1ccc(/C=N/Nc2ccc([N+](=O)[O-])cc2[N+](=O)[O-])cc1
T/C: 90 % of control

Molecule: CN(N=O)C(=O)NC1C(O)C(CO)OC1n1ccc(=O)[nH]c1=O (stereo not drawn)
T/C: 96 % of control

Molecule: O=C(C[N+]12CCC(O)C1C(CO)CC2)c1ccc(Br)cc1 (stereo not drawn)
T/C: 89 % of control

Molecule: COC1C(=O)CCC2(CO2)C1(O)C1(C)OC1CC=C(C)C (stereo not drawn)
T/C: 100 % of control

Molecule: C/C(CC(c1ccccc1)N1CCc2ccccc2C1)=N/O (stereo not drawn)
T/C: 104 % of control

Molecule: CCCCCCCCCCCCCCCCNC(=S)NC1CCCCC1
T/C: 97 % of control

Molecule: O=C(O)c1ccc(C(=O)c2ccccc2C(=O)O)cc1
T/C: 112 % of control

Molecule: N#Cc1ccc(OC(=O)c2ccc(N=C(N)N)cc2)cc1
T/C: 93 % of control

Molecule: CS(C)=O.CS(C)=O.CS(C)=O.[Cl][Rh]([Cl])[Cl]
T/C: 89 % of control

Molecule: CC(C)(CNCc1ccccc1)COS(=O)(=O)O
T/C: 102 % of control

Molecule: O=S(=O)(NO)c1ccc(Cl)cc1
T/C: 94 % of control

Molecule: CCOC(=O)C1CSCN1 (stereo not drawn)
T/C: 89 % of control

Molecule: CSc1ncc(CO)c(NC(C)(C)C)n1
T/C: 100 % of control

###

Test system: L1210 leukemia ip in BDF1 mice, survival T/C
Test: NCI In Vivo Anticancer Drug Screen. Data for tumor model L1210 Leukemia (intraperitoneal) in B6D2F1 (BDF1) mice
Conditions: endpoint: mean survival time; dose: 100.0 mg/kg/injection; schedule: Q04DX003 (ip); vehicle: saline with Tween-80; higher = longer survival
Procedure: The antitumor activity of compounds was measured in mice bearing transplantable tumors. Survival or tumor size were measured and the results are expressed as the measurement made in the treated group (T) divided by the measurement made in the vehicle treated control group (C). The tumor model used in this assay is L1210 Leukemia (intraperitoneal) in B6D2F1 (BDF1) mice
Toxic doses and inconclusive results are not listed.
Quantity Kind: T/C

Compound: COc1ccc(C(C)c2ccccc2)cc1C(C)c1ccccc1 (configuration not stated)
Quantity Kind: T/C
Observed Result: 98 % of control

Compound: CCCCCC/C=C/C(=O)OCC
Quantity Kind: T/C
Observed Result: 96 % of control

Compound: Cc1c(Cl)cc(Cl)c(N)c1Cl
Quantity Kind: T/C
Observed Result: 100 % of control

Compound: Cc1cc(Br)cnc1Cl
Quantity Kind: T/C
Observed Result: 96 % of control

Compound: CCOC(=O)c1cnc(SC)nc1Nc1cc(Cl)cc(Cl)c1
Quantity Kind: T/C
Observed Result: 89 % of control

Compound: CC(=O)c1ccc(S(=O)(=O)c2ccccc2)cc1
Quantity Kind: T/C
Observed Result: 96 % of control

Compound: CN1CCN(C2CCCCc3ccccc32)CC1 (configuration not stated)
Quantity Kind: T/C
Observed Result: 95 % of control

Compound: Nc1ccccc1C(=O)c1ccccc1
Quantity Kind: T/C
Observed Result: 93 % of control

Compound: O=C(O)c1cccnc1Cl
Quantity Kind: T/C
Observed Result: 105 % of control

Compound: CC(=O)Oc1ccccc1OC(=S)N(C)C
Quantity Kind: T/C
Observed Result: 106 % of control

Compound: CC1(ON(c2cc(Cl)cc(Cl)c2)C2(C)c3ccccc3-c3ccccc32)c2ccccc2-c2ccccc21
Quantity Kind: T/C
Observed Result: 88 % of control

Compound: Cc1ccc[n+](CCc2c[nH]c3ccccc23)c1
Quantity Kind: T/C
Observed Result: 90 % of control

Compound: NC(=O)NC1CCCC1
Quantity Kind: T/C
Observed Result: 93 % of control

Compound: NC(CS(=O)c1ccc([N+](=O)[O-])cc1Cl)C(=O)O (configuration not stated)
Quantity Kind: T/C
Observed Result: 103 % of control

Compound: CCOC(=O)c1cc(=O)ss1
Quantity Kind: T/C
Observed Result: 96 % of control

Compound: O=C(O)C(Cl)c1ccccc1 (configuration not stated)
Quantity Kind: T/C
Observed Result: 95 % of control

Compound: C#CC1(OCC2CN(c3ccccc3)C(=O)O2)CCCCC1 (configuration not stated)
Quantity Kind: T/C
Observed Result: 97 % of control

Compound: CC(C)N(CCNc1nc(C(Cl)(Cl)Cl)nc2cc(Cl)ccc12)C(C)C
Quantity Kind: T/C
Observed Result: 93 % of control

Compound: CC12CC(C(=O)c3ccccc3)C(C)(C1=O)C(c1ccccc1)=C2c1ccccc1 (configuration not stated)
Quantity Kind: T/C
Observed Result: 96 % of control

Compound: COc1c(C)ccc([N+](=O)[O-])c1OC
Quantity Kind: T/C
Observed Result: 94 % of control

Compound: O=C1C(Br)=CC(Br)(Br)C=C1Br
Quantity Kind: T/C
Observed Result: 92 % of control

Compound: c1ccc2cc(-c3nc4cccc5c4n3CCC5)ccc2c1
Quantity Kind: T/C
Observed Result: 92 % of control

Compound: NC(=O)Oc1ccc(C2CC(=O)C(C(N)=O)C(=O)C2)cc1 (configuration not stated)
Quantity Kind: T/C
Observed Result: 108 % of control

Compound: O=Cc1[nH]c(=S)[nH]c(=O)c1Cc1ccc([N+](=O)[O-])cc1
Quantity Kind: T/C
Observed Result: 93 % of control

Compound: CC1CC(CC(=O)O)(C(=O)O)CC(C)O1 (configuration not stated)
Quantity Kind: T/C
Observed Result: 90 % of control

Compound: CN(C)N=Nc1ccc([N+](=O)[O-])cc1Cl
Quantity Kind: T/C
Observed Result: 101 % of control

Compound: S=c1nc[nH]c2c1ncn2-n1cccc1
Quantity Kind: T/C
Observed Result: 103 % of control

###

Below: a set of entries, each annotated with reported T/C.
Tested on: L1210 leukemia ip in BDF1 mice, survival T/C
Test: NCI In Vivo Anticancer Drug Screen. Data for tumor model L1210 Leukemia (intraperitoneal) in B6D2F1 (BDF1) mice
Details: endpoint: mean survival time; dose: 400.0 mg/kg/injection; schedule: Q04DX003 (ip); vehicle: saline; higher = longer survival
Inconclusive results and toxic doses are left out.

Molecular String: CC(C)CC[n+]1ccc(C(N)=O)cc1
T/C: 104 % of control
//
Molecular String: COc1cc[n+]([O-])cc1
T/C: 95 % of control
//
Molecular String: O=C1Cc2cccc(=O)c(O)c2C(=O)O1
T/C: 89 % of control
//
Molecular String: COc1ccc(C=O)c(Cl)c1OC
T/C: 98 % of control

###

System: L1210 leukemia ip in BDF1 mice, survival T/C
Test: NCI In Vivo Anticancer Drug Screen. Data for tumor model L1210 Leukemia (intraperitoneal) in B6D2F1 (BDF1) mice
Conditions: endpoint: mean survival time; dose: 25.0 mg/kg/injection; schedule: Q04DX003 (ip); vehicle: saline; higher = longer survival
Inconclusive results and toxic doses are left out.
Below: a set of entries, each annotated with reported T/C.
Quantity Kind: T/C

Compound: COc1cc(N2CCOCC2)ccc1N
Experimental System: L1210 leukemia ip in BDF1 mice, survival T/C
Observed Result: 100 % of control

Compound: CC1C[N-]CC(C)C1.CC1C[N-]CC(C)C1.[Cl][Pt+2]([Cl])([Cl])[Cl] (stereo unspecified)
Experimental System: L1210 leukemia ip in BDF1 mice, survival T/C
Observed Result: 87 % of control

Compound: CC(=O)OC(C(C)=O)C(C)=O.CC(=O)OC(C(C)=O)C(C)=O.[Cu]
Experimental System: L1210 leukemia ip in BDF1 mice, survival T/C
Observed Result: 96 % of control

Compound: C[n+]1cc2ccccc2c2ccccc21
Experimental System: L1210 leukemia ip in BDF1 mice, survival T/C
Observed Result: 107 % of control

Compound: O=C1Nc2c(Cl)cccc2C1=O
Experimental System: L1210 leukemia ip in BDF1 mice, survival T/C
Observed Result: 98 % of control

Compound: CCN1Cc2ccc(O)cc2C1
Experimental System: L1210 leukemia ip in BDF1 mice, survival T/C
Observed Result: 107 % of control

Compound: O=C(CCN1CCCCCCC1)c1cccc([N+](=O)[O-])c1
Experimental System: L1210 leukemia ip in BDF1 mice, survival T/C
Observed Result: 97 % of control

Compound: C[N+]1(C)C2CSCC1CC(O)C2 (stereo unspecified)
Experimental System: L1210 leukemia ip in BDF1 mice, survival T/C
Observed Result: 98 % of control

Compound: N#CC1CC=CCC1 (stereo unspecified)
Experimental System: L1210 leukemia ip in BDF1 mice, survival T/C
Observed Result: 113 % of control

Compound: C=CCOCC(O)CN(C)CCCC (stereo unspecified)
Experimental System: L1210 leukemia ip in BDF1 mice, survival T/C
Observed Result: 101 % of control

Compound: O=[N+]([O-])c1ccc(C[n+]2ccc3ccccc3c2)cc1
Experimental System: L1210 leukemia ip in BDF1 mice, survival T/C
Observed Result: 92 % of control
